Target: KRAS G12V (Homo sapiens (Human), UniProt P01116+P62937, G12V)
Sequence (P01116-2 other isoform, or with tags, fused parts or gaps G12V): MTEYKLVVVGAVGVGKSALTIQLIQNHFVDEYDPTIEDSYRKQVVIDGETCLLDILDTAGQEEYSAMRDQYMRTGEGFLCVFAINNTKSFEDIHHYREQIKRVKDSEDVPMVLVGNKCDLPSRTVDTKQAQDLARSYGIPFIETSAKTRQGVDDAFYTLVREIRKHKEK
Sequence (P62937 whole entry): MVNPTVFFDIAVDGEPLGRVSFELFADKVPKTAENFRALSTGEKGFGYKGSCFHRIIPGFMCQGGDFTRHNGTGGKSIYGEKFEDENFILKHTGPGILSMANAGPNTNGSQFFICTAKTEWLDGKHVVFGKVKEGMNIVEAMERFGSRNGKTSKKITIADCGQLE
Assay: Ras-Raf (BRAF RBD) disruption / FRET / MOA assay, KRAS G12V
Type: biochemical
Conditions: read-out: IC50* KRAS G12V FRET data
METRIC: IC50

COMPOUND	MEASURED_ON	METRIC	OBS_VALUE
C=CC(=O)N1CC[C@]2(CCN(C(=O)N(C)[C@H](C(=O)N[C@H]3Cc4nc(cs4)-c4ccc5c(c4)c(c(-c4cccnc4[C@H](C)OC)n5CC)CC(C)(C)COC(=O)[C@@H]4CCCN(N4)C3=O)C(C)C)C2)C1 (atropisomer, axis not shown) [Example A719]	KRAS G12V (Homo sapiens (Human), UniProt P01116+P62937, G12V)	IC50	100 to 1000 nM

// query For the compound CC#CC(=O)N1CC[C@@H](C(=O)N(C)[C@H](C(=O)N[C@H]2Cc3cc(O)cc(c3)-c3ccc4c(c3)c(c(-c3cncnc3)n4CC)CC(C)(C)COC(=O)[C@@H]3CCCN(N3)C2=O)C(C)C)C1 [Example A169] , what IC50 is on record?
// result 1000 to 10000 nM

// query For the compound CC#CC(=O)N1CC[C@H](C(=O)N(C)[C@H](C(=O)N[C@H]2Cc3cccc(c3)-c3ccc4c(c3)c(c(-c3cccnc3[C@H](C)OC)n4C#N)CC(C)(C)COC(=O)[C@@H]3CCCN(N3)C2=O)C(C)C)C1 (atropisomer, axis not shown) [Example A304] , what IC50 is on record?
// result > 10000 nM

// query For the compound C=CC(=O)N1CCC(F)(C(=O)N(C)[C@H](C(=O)N[C@H]2Cc3nc(cs3)-c3ccc4c(c3)c(c(-c3cccnc3[C@H](C)OC)n4CC)CC(C)(C)COC(=O)[C@@H]3CCCN(N3)C2=O)C(C)C)CC1 (atropisomer, axis not shown) [Example A700] , what IC50 is on record?
// result 100 to 1000 nM

// query For the compound CCn1c(-c2cccnc2[C@H](C)OC)c2c3cc(ccc31)-c1cccc(c1)C[C@H](NC(=O)[C@@H](CO[C@H]1CCN(C(=O)C#CC(C)(C)N(C)C)C1)C(C)C)C(=O)N1CCC[C@H](N1)C(=O)OCC(C)(C)C2 (atropisomer, axis not shown) [Example A585] , what IC50 is on record?
// result 1000 to 10000 nM

// query For the compound C=CC(=O)N1CC(OCC(C(=O)N[C@H]2Cc3cc(cc(C(F)F)c3)-c3ccc4c(c3)c(c(-c3cccnc3[C@H](C)OC)n4CC)CC(C)(C)COC(=O)[C@@H]3CCCN(N3)C2=O)C(C)C)C1 (mixture of isomers) [Example A450] , what IC50 is on record?
// result > 10000 nM

// query For the compound C=CC(=O)N1CCC2(CC1)CCN2C(=O)N(C)[C@H](C(=O)N[C@H]1Cc2nc(cs2)-c2ccc3c(c2)c(c(-c2cccnc2[C@H](C)OC)n3CC)CC(C)(C)COC(=O)[C@@H]2CCCN(N2)C1=O)C(C)C (atropisomer, axis not shown) [Example A678] , what IC50 is on record?
// result 100 to 1000 nM

// query For the compound CCn1c(-c2cccnc2[C@H](C)OC)c2c3cc(ccc31)-c1cccc(c1)C[C@H](NC(=O)[C@H](C(C)C)N(C)C(=O)[C@H]1CCN(C(=O)/C=C/CN3CC(OC)C3)C1)C(=O)N1CCC[C@H](N1)C(=O)OCC(C)(C)C2 (atropisomer, axis not shown) [Example A204] , what IC50 is on record?
// result 1000 to 10000 nM
